The reported measurements were obtained from patent US8956445B2.

Assay: Refractive index (Abbe-3L refractometer)
Format: physicochemical
Settings: 23° C.
Overview of recorded Refractive Index for various molecules

| smilesRecord | Refractive Index |
| --- | --- |
| CCCCn1cc[n+](CCCCCCCCC[n+]2ccn(CCCC)c2)c1.F[P-](F)(F)(F)(F)F.F[P-](F)(F)(F)(F)F | 1.439 |
| Cn1cc[n+](CCCCCCCCCCCC[n+]2ccn(C)c2)c1.O=S(=O)([N-]S(=O)(=O)C(F)(F)F)C(F)(F)F.O=S(=O)([N-]S(=O)(=O)C(F)(F)F)C(F)(F)F | 1.443 |
| F[P-](F)(F)(F)(F)F.F[P-](F)(F)(F)(F)F.c1ccc(Cn2cc[n+](CCCCCCCCCCCC[n+]3ccn(Cc4ccccc4)c3)c2)cc1 | 1.484 |
| C[N+]1(CCCCCCCCC[N+]2(C)CCCC2)CCCC1.O=S(=O)([N-]S(=O)(=O)C(F)(F)F)C(F)(F)F.O=S(=O)([N-]S(=O)(=O)C(F)(F)F)C(F)(F)F | 1.436 |
| Cn1cc[n+](CCC[n+]2ccn(C)c2)c1.O=S(=O)([N-]S(=O)(=O)C(F)(F)F)C(F)(F)F.O=S(=O)([N-]S(=O)(=O)C(F)(F)F)C(F)(F)F | 1.440 |
| Cn1cc[n+](CCCCCCCCC[n+]2ccn(C)c2)c1.F[B-](F)(F)F.F[B-](F)(F)F | 1.469 |
| CCCCn1cc[n+](CCCCCCCCC[n+]2ccn(CCCC)c2)c1.F[B-](F)(F)F.F[B-](F)(F)F | 1.503 |
| CCCCn1cc[n+](CCCCCCCCC[n+]2ccn(CCCC)c2)c1.O=S(=O)([N-]S(=O)(=O)C(F)(F)F)C(F)(F)F.O=S(=O)([N-]S(=O)(=O)C(F)(F)F)C(F)(F)F | 1.446 |
| Cc1n(C)cc[n+]1CCCCCCCCC[n+]1ccn(C)c1C.F[B-](F)(F)F.F[B-](F)(F)F | 1.456 |
| CCCCCCCCC[n+]1ccn(C)c1.O=S(=O)([N-]S(=O)(=O)C(F)(F)F)C(F)(F)F | 1.434 |
| Cn1cc[n+](CCCCCCCCCCCC[n+]2ccn(C)c2)c1.F[B-](F)(F)F.F[B-](F)(F)F | 1.503 |
| Cn1cc[n+](CCCCCCCCCCCC[n+]2ccn(C)c2)c1.F[P-](F)(F)(F)(F)F.F[P-](F)(F)(F)(F)F | 1.436 |

----------
Test: Solvation interaction parameters by inverse gas-liquid chromatography (Abraham solvation model)
Assay type: physicochemical
Details: 40° C.
propertyName: l (dispersion forces)

| compound | assayValue |
| --- | --- |
| C[n+]1ccn(CCCCn2cc[n+](C)c2)c1.O=S(=O)([N-]S(=O)(=O)C(F)(F)F)C(F)(F)F.O=S(=O)([N-]S(=O)(=O)C(F)(F)F)C(F)(F)F [C4(mim)2-NTf2] | 0.56 |
| CCCCCCCCC[n+]1ccn(C)c1.O=S(=O)([N-]S(=O)(=O)C(F)(F)F)C(F)(F)F [nmim-NTf2] | 0.75 |
| C[N+]1(CCCCCCCCC[N+]2(C)CCCC2)CCCC1.O=S(=O)([N-]S(=O)(=O)C(F)(F)F)C(F)(F)F.O=S(=O)([N-]S(=O)(=O)C(F)(F)F)C(F)(F)F [C9(mpy)2-NTf2] | 0.62 |
| Cn1cc[n+](CCCCCCCCC[n+]2ccn(C)c2)c1.O=S(=O)([N-]S(=O)(=O)C(F)(F)F)C(F)(F)F.O=S(=O)([N-]S(=O)(=O)C(F)(F)F)C(F)(F)F [C9(mim)2-NTf2] | 0.62 |
| O=S(=O)([N-]S(=O)(=O)C(F)(F)F)C(F)(F)F.O=S(=O)([N-]S(=O)(=O)C(F)(F)F)C(F)(F)F.c1ccc(Cn2cc[n+](CCCCCCCCCCCC[n+]3ccn(Cc4ccccc4)c3)c2)cc1 [C12(benzim)2-NTf2] | 0.66 |
